# STUDY TARGET: ΔF508-CFTR (Homo sapiens, UniProt P13569, DEL508-508)
# Construct: host or cells: CFBE41o-, doxycycline-inducible
# Sequence (P13569 with tags, fused parts or gaps DEL508-508): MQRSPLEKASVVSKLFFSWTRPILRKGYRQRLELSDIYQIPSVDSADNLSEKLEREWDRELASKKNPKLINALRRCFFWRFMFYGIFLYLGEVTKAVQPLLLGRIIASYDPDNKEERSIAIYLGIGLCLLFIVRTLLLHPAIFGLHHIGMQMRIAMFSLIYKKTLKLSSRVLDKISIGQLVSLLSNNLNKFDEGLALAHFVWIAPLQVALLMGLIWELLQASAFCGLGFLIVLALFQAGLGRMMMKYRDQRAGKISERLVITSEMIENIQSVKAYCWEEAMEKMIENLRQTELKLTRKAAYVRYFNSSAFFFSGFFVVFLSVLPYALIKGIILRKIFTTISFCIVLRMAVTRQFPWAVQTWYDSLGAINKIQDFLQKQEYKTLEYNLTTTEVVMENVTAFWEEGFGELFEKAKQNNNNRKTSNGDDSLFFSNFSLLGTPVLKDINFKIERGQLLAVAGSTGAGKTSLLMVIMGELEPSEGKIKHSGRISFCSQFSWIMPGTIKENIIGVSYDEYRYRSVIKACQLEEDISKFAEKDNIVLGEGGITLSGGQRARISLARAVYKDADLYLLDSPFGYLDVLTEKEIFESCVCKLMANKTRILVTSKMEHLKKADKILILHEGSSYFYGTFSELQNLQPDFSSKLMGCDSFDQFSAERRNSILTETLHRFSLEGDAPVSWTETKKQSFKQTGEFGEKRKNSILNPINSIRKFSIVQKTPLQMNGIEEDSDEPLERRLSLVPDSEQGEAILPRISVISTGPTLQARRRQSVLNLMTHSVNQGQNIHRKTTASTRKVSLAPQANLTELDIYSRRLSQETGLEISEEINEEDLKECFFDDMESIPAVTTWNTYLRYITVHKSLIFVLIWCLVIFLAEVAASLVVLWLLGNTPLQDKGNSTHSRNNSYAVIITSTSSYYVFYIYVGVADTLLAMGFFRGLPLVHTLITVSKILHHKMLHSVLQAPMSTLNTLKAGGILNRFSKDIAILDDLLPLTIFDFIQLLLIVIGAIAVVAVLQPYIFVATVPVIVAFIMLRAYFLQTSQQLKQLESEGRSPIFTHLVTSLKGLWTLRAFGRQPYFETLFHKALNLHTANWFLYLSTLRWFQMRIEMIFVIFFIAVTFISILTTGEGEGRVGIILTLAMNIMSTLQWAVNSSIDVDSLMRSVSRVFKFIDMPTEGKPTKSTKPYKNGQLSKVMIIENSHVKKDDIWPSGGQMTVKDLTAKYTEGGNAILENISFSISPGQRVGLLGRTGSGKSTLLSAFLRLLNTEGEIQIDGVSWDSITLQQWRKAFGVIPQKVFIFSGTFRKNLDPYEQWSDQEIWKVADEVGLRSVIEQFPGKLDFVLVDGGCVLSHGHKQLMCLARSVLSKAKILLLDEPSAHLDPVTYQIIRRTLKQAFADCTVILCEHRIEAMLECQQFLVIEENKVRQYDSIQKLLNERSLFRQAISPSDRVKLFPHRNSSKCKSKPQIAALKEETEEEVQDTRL
# EXPERIMENTAL DETAILS: CFTR cell surface levels using HRP-tagged ΔF508-CFTR expressing CFBE cells, intrinsic corrector capacity
# Type: cell-based
# COND: HRP-tagged ΔF508-CFTR expressing CFBE41o- cells; compound alone (intrinsic corrector capacity); 20 hours at 33° C.; read-out: EC50
Give measured pEC50 for each item. Keep answers brief.
Numbers only, as −log10 of the molar value.

COCC1CCN(c2cc(C(=O)NS(C)(=O)=O)nc3c2c(C(C)C)nn3-c2ccnc(N3CCOCC3)c2)CC1 [Compound 248]
6.43
CS(=O)(=O)NC(=O)c1cc(-c2ccc(N3CCC(C#N)CC3)nc2)c2c(OC3COC3)nn(-c3ccccc3)c2n1 [Compound 300]
6.51
CC(C)c1nn(-c2cccc(F)c2)c2nc(C(=O)NS(C)(=O)=O)cc(-c3ccc(N4CCC(C#N)CC4)cc3)c12 [Compound 131]
6.37
CC(C)Oc1nn(-c2ccccc2)c2nc(C(=O)NS(C)(=O)=O)cc(-c3ccc(N4CCOCC4)cc3)c12 [Compound 166]
6.36

Hey, quick one: what's pEC50 for each of these?
1. Cc1nn(-c2ccc(OC(F)(F)F)cc2)c2nc(C(=O)NS(C)(=O)=O)cc(-c3ccc(N4CCOCC4)cc3)c12 [Compound 69]
2. CS(=O)(=O)NC(=O)c1cc(N2CCC(N3CCCC(C#N)C3)CC2)c2c(C3CCC3)nn(-c3ccc(F)cc3)c2n1 (stereo not shown) [Compound 566]
3. COC(C)(C1CCN(c2cc(C(=O)NS(C)(=O)=O)nc3c2c(C2CCC2)nn3-c2ccccc2)CC1)C(F)(F)F (stereo not shown) [Compound 242]
4. COC1CCN(c2cc(C(=O)NS(=O)(=O)C3CCS(=O)(=O)C3)nc3c2c(C2CCC2)nn3-c2ccccc2)CC1 (stereo not shown) [Compound 143]
5. CN1CCCN(C(=O)c2cc(N3CCC(CN4CCCC4)CC3)c3c(C4CCC4)nn(-c4ccccc4)c3n2)S1(=O)=O [Compound 660]
6. CCOC(=O)N1CCN(c2cc(C(=O)NS(C)(=O)=O)nc3c2c(C2CCC2)nn3-c2ccc(F)cc2)CC1 [Compound 679]
7. CC(C)(C)c1nn(C2CCCC2)c2nc(C(=O)NS(C)(=O)=O)cc(-c3ccc(N4CCOCC4)nc3)c12 [Compound 12]
8. O=C(NS(=O)(=O)N1CCCCC1)c1cc(N2CCC(N3CCOCC3)CC2)c2c(C3CCC3)nn(-c3ccc(F)cc3)c2n1 [Compound 568]

Result:
[6.20, 6.95, 6.55, 5.95, 6.03, 6.88, 5.97, 7.11]

Hey, quick one: what's pEC50 for each of these?
1. CCOC(=O)N1CCC(NS(=O)(=O)NC(=O)c2cc(N3CCC(CN4CCCC4)CC3)c3c(C4CCC4)nn(-c4ccccc4)c3n2)CC1 [Compound 457]
2. CC(C)Oc1nn(C2CCCCC2)c2nc(C(=O)NS(=O)(=O)N(C)C)cc(-c3ccc(CN4CCCC4)cc3)c12 [Compound 444]
3. CC(C)COC(=O)N1CCN(c2cc(C(=O)NS(C)(=O)=O)nc3c2c(C2CCC2)nn3-c2ccc(F)cc2)CC1 [Compound 681]

Result:
6.89
6.46
6.76

* * *

# STUDY TARGET: ΔF508-CFTR (Homo sapiens, UniProt P13569, DEL508-508)
# Construct: host or cells: CFBE41o-, doxycycline-inducible
# EXPERIMENTAL DETAILS: CFTR cell surface levels using HRP-tagged ΔF508-CFTR expressing CFBE cells, intrinsic corrector capacity
# Type: cell-based
# COND: HRP-tagged ΔF508-CFTR expressing CFBE41o- cells; compound alone (intrinsic corrector capacity); 20 hours at 33° C.; read-out: EC50
OBSERVATION TYPE: pEC50
One number for each entry, as −log10 of the molar value.

Take a look at these entries with their results.
CC(C)(O)C1CCN(c2cc(C(=O)NS(C)(=O)=O)nc3c2c(C2CCC2)nn3-c2ccccc2)CC1
7.03
CN(C)S(=O)(=O)NC(=O)c1cc(N2CCC(N3CCOCC3)CC2)c2c(C3CCC3)nn(-c3ccnc(OC(F)F)c3)c2n1
6.83
CC(C)c1nn(-c2cccc(N(C)C)c2)c2nc(C(=O)NS(C)(=O)=O)cc(-c3ccc(N4CCOCC4)nc3)c12
6.17
CCCN(C)S(=O)(=O)NC(=O)c1cc(N2CCC(COC)CC2)c2c(C3CCC3)nn(-c3ccccc3)c2n1
7.11

# next molecule below
Problem: Give recorded pEC50. `CC(C)c1nn(-c2cccc(N(C)C)c2)c2nc(C(=O)NS(C)(=O)=O)cc(N3CCC(C#N)CC3)c12`
Result: 6.51

* * *

# STUDY TARGET: ΔF508-CFTR (Homo sapiens, UniProt P13569, DEL508-508)
# Construct: host or cells: CFBE41o-, doxycycline-inducible
# EXPERIMENTAL DETAILS: CFTR cell surface levels using HRP-tagged ΔF508-CFTR expressing CFBE cells, in the presence of a co-corrector
# Assay type: cell-based
# COND: HRP-tagged ΔF508-CFTR CFBE cells, in the presence of 3 μM co-corrector
# % Activation binned as bin 1: < 300%; bin 2: ≥ 300% and < 400%; bin 3: ≥ 400%

Problem: Class? Entry: COCC1CCN(c2cc(C(=O)NS(=O)(=O)C3CCNC3)nc3c2c(C2CCC2)nn3-c2ccccc2)CC1 (stereo not shown)
Result: bin 1

Problem: Class? Entry: `CC(=O)N1CCC(F)(COc2cc(C(=O)NS(C)(=O)=O)nc3c2c(C(C)C)nn3-c2ccc(F)cc2)CC1`
Result: bin 2

Problem: Class? Entry: `COC1CCN(C2CCN(c3cc(C(=O)NS(C)(=O)=O)nc4c3c(C3CCC3)nn4-c3ccc(F)cc3)CC2)CC1`
Result: bin 3

Problem: Class? Entry: `COC(C)(C)C1CCN(c2cc(C(=O)NS(C)(=O)=O)nc3c2c(C(C)C)nn3-c2ccc(F)cc2)CC1`
Result: bin 3

Problem: Class? Entry: `CS(=O)(=O)NC(=O)c1cc(N2CC3(CCCCC3)C2)c2c(C3CCC3)nn(-c3ccccc3)c2n1`
Result: bin 1

Problem: Class? Entry: `CS(=O)(=O)NC(=O)c1cc(N2CCC(N3CCOCC3)CC2)c2c(C3CCC3)nn(-c3ccc(C(F)(F)F)cc3)c2n1`
Result: bin 3

Problem: Class? Entry: `COCCOCC1(F)CCN(c2cc(C(=O)NS(C)(=O)=O)nc3c2c(C(C)C)nn3-c2ccc(F)cc2)CC1`
Result: bin 2

Problem: Class? Entry: `CS(=O)(=O)NC(=O)c1cc(OC[C@H](F)C2CCOCC2)c2c(C3CCC3)nn(-c3ccccc3)c2n1`
Result: bin 1

* * *

Give measured EC50 for each item. Keep answers brief.
# STUDY TARGET: ΔF508-CFTR (Homo sapiens, UniProt P13569, DEL508-508)
# Construct: host or cells: CFBE41o-, doxycycline-inducible
# EXPERIMENTAL DETAILS: CFTR cell surface levels using HRP-tagged ΔF508-CFTR expressing CFBE cells, in the presence of a co-corrector
# Type: cell-based
# COND: HRP-tagged ΔF508-CFTR CFBE cells, in the presence of 3 μM co-corrector; read-out: EC50
Numbers only, in nM.

COCC1CCN(c2cc(C(=O)NS(=O)(=O)N3CCOCC3)nc3c2c(C2CCC2)nn3-c2ccc(F)cc2)CC1
107
CCS(=O)(=O)NC(=O)c1cc(-c2cnc(N3CCOCC3)nc2)c2c(C(C)C)nn(-c3cccc(N(C)C)c3)c2n1
532
CNS(=O)(=O)NC(=O)c1cc(N2CCC(N3CCN(C4CC4)CC3)CC2)c2c(C3CCC3)nn(-c3ccccc3)c2n1
106

Problem: Give recorded EC50. `CCS(=O)(=O)NC(=O)c1cc(N2CCC(N3CCCCC3)CC2)c2c(C3CCC3)nn(-c3ccc(F)cc3)c2n1`
Result: 127

* * *

Give measured % Activation for each item. Keep answers brief.
# STUDY TARGET: ΔF508-CFTR (Homo sapiens, UniProt P13569, DEL508-508)
# Construct: host or cells: CFBE41o-, doxycycline-inducible
# EXPERIMENTAL DETAILS: CFTR cell surface levels using HRP-tagged ΔF508-CFTR expressing CFBE cells, in the presence of a co-corrector
# Type: cell-based
# COND: HRP-tagged ΔF508-CFTR CFBE cells, in the presence of 3 μM co-corrector
Answers are plain numbers, in %.

Take a look at these entries with their results.
CC(C)N1CCC2CN(c3cc(C(=O)NS(=O)(=O)N(C)C)nc4c3c(C3CCC3)nn4-c3ccc(F)cc3)CCC21 (centres unmarked)
353.87
COC1CCN(c2ccc(-c3cc(C(=O)NS(C)(=O)=O)nc4c3c(C(C)C)nn4C3CCCCC3)cn2)C1 (centres unmarked)
348.1
COCC1CCN(c2cc(C(=O)NS(C)(=O)=O)nc3c2c(C(C)C)nn3-c2cc(C)nc(C)c2)CC1
343.2
C[C@H]1CN(c2cc(C(=O)NS(=O)(=O)N(C)C)nc3c2c(C2CCC2)nn3C2CCCCC2)CCN1Cc1ccccc1
191.3
CCS(=O)(=O)NC(=O)c1cc(N2CCC(CN3CCOCC3)CC2)c2c(C3CCC3)nn(-c3ccc(F)cc3)c2n1
551.8
CC(=O)NCCS(=O)(=O)NC(=O)c1cc(N2CCC(N3CCOCC3)CC2)c2c(C3CCC3)nn(-c3ccc(F)cc3)c2n1
283.3
CC(C)c1nn(-c2ccccc2)c2nc(C(=O)NS(C)(=O)=O)cc(-c3cnc(N4CCOCC4)nc3)c12
417.5

# next compound below
Problem: Give recorded % Activation. `CCS(=O)(=O)N(C)C(=O)c1cc(N2CCC(CN3CCCC3)CC2)c2c(C3CCC3)nn(-c3ccccc3)c2n1`
Result: 290.95
